Origin of measurements: the supplement of paper PMC9170038

System: K4 kissing-loop RNA reporter
test.summary: apparent KD of K4 kissing-loop reporter; higher = weaker reporter binding
test.context: Eterna round: R107; input ligand: FMN 200 uM
value.type: apparent KD of K4 kissing-loop reporter (nM)
Only the number, expressed in nM, is required.

{"residue.string": "UAGUCCUAGUGAUGGUUAUCACGUGGUGGGCGAGGACCGGUACGGCCGCCACUCGACUAUGCAGUGAUGUUGCAAUCCGGACAAU [Exclusion - Tryptophan A (Freestyle 16)]", "apparent KD of K4 kissing-loop reporter [nM]": 319}

Here is another sequence to look at.
For K4 kissing-loop RNA reporter, provide apparent KD of K4 kissing-loop reporter of UAUAAUUCGGCGGCCGCCACUGACCAUAGCCUUCGAUGGCCAGUGAUGUUGGCCUCUGGCUCUAACAGGACCGGGCCGAAUUGUG [Reresoza] please.
211

###

Test system: MS2 coat protein
test.summary: apparent KD of MS2 coat protein; designed switch direction (-1 OFF switch, 1 ON switch): -1; higher = weaker reporter binding
test.context: input ligand: FMN 200 uM
Measured apparent KD of MS2 coat protein values are reported for all entries that follow.
Only the number, expressed in nM, is required.

Answered examples (4):
{"residue.string": "GUAGAGUCAGGAUAUACAAAUAGAUCGAAAGAUCAAUCCAUACAUGAGGAUCACCCAUGUAGAAGGGACUCUAC [Eli x2 4.15] (Eterna round: R97, puzzle: Exclusion 2)", "value.type": "apparent KD of MS2 coat protein", "recorded.value": 20.5}
{"residue.string": "GUCAGCUCGUGAGGAUAUGAACAUGAGGAUCACCCAUGUAAGAUCAAGCUGCUUCGGCAGCAAGUUCAGAAGGCACGAGCUGAU [ENG2/10-A2] (Eterna round: R96, puzzle: Exclusion NG 2)", "value.type": "apparent KD of MS2 coat protein", "recorded.value": 251}
{"residue.string": "ACAAGCUAAGUGCUCGGUCCGGGAGACACGUGAUCAGCGACAUGAGGAUCACCCAUGUAAUAGGAGCUUAAAACGUU [solution 46] (Eterna round: R96, puzzle: Sensor v2, turn-off variant 2)", "value.type": "apparent KD of MS2 coat protein", "recorded.value": 15}
{"residue.string": "GAUACCUAUGUAAGGAUAUAUAAAGAGAGCCGCCUGUAGAAGGUACAUGAGGAUCACCCAUGUUGGGAGACCGA [Eternabot (L1) Solution 17] (Eterna round: R97, puzzle: Brourd's mod of Exclusion 4)", "value.type": "apparent KD of MS2 coat protein", "recorded.value": 1160}

// lookup apparent KD of MS2 coat protein for AGUUCACAUGAGGAUCACCCAUGUGAGGAUAUGGAUUCGCUGGCCGUAGCCAGUGGAUCCAGAAGGCGCGUGAU [JL-ex1-4.15] (Eterna round: R97, puzzle: Exclusion 1)
55.7

###

Test system: K4 kissing-loop RNA reporter
test.summary: apparent KD of K4 kissing-loop reporter; higher = weaker reporter binding
test.context: Eterna round: R107; input ligand: theophylline 20 uM
value.type: apparent KD of K4 kissing-loop reporter (nM)
Only the number, expressed in nM, is required.

Answered examples (5):
{"residue.string": "UCGAAGGAUGGAAGGAGCGCUCGUCAGUCCUGCGAGUGAUGUUCGUGGGUAAAUAUUCGCGAGCAGGUAGGUCGCCAUCUUGAGA [Laatla]", "value.type": "apparent KD of K4 kissing-loop reporter", "unit.symbol": "nM", "recorded.value": 108}
{"residue.string": "GCCCUCUUAACGGCCGCCACUAUAUUUAUGAUCUCUAGUAAGUGAUGUUUACUCCGGCUUAUAGGUAGGACCGGGUUAUUAUCUU [theeternabot_sameState_KL_Trp_B_39]", "value.type": "apparent KD of K4 kissing-loop reporter", "unit.symbol": "nM", "recorded.value": 302}
{"residue.string": "GCCGUAGAUGGAAGGAGCGUGGUAGACUGUUGAAGUGAUGUUUCAACUCAUUAAGCCCAACCACAGGUAGGUCGCCAUCUACGGC", "value.type": "apparent KD of K4 kissing-loop reporter", "unit.symbol": "nM", "recorded.value": 112}
{"residue.string": "UCCUAGGACUUCAGGCGAAAGCCCUGCGAAGGAGCGUGCGAAAGCACAGGUAGGUCGCGCAGUGAUGUUGCACCUAGGUAAUAAA [#SwitchBubble 20 #K4Late]", "value.type": "apparent KD of K4 kissing-loop reporter", "unit.symbol": "nM", "recorded.value": 1020}
{"residue.string": "AAGUUUUAUAAACUCAUGGUUUCGACAGAUACCAGCUUCGAGAGGAGCCCUUGGCAGCUGCAUGAGUGAUGUUCAUGUACGAAGA [KL-XTheoA8]", "value.type": "apparent KD of K4 kissing-loop reporter", "unit.symbol": "nM", "recorded.value": 416}

// lookup apparent KD of K4 kissing-loop reporter for AGGUUUUGAUUAGGAUAUGCACUGAGGAGGAGAAUAUAGUGAUGUUAUAUAAGAGGAAGUAGUAGAGUAGAAGGGAUUGAGGUUU [SSFMNB.S]
210

###

System: MS2 coat protein
test.summary: apparent KD of MS2 coat protein; higher = weaker reporter binding
test.context: Eterna round: R107; input ligand: tryptophan 2.4 mM
Heads up, the class ranges for apparent KD of MS2 coat protein are lower: < 20 nM; middle: ≥ 20 nM and < 90 nM; upper: ≥ 90 nM

Which class is correct for the following sequence? AGCAGCUCGAAAGAGUUGCACUCAUGUGAAGGAGCGCCCGUUAGGGCAGGUAGGUCGCACAUGAGGAUCACCCAUGUACCUUCUA [ArgAX 20 #OpenEnded #MS2Late]
upper

###

Measured apparent KD of K4 kissing-loop reporter values are reported for all entries that follow.
Test system: K4 kissing-loop RNA reporter
test.summary: apparent KD of K4 kissing-loop reporter; higher = weaker reporter binding
test.context: Eterna round: R107; input ligand: FMN 200 uM
Remember to put the unit after the number in your answer.

{"residue.string": "CCUUCUCUUGAUAGUGAUGUUAUCAAGGGCAAGGAUAUCAUCUCAAUGAGAAGGUGUCCUUGAUAACAUGGAGGUCUGAAACAGA [Omei KL FMN A Exc C v4]", "recorded.value": "157 nM"}
{"residue.string": "CUUAUGGACUAAGGAUAUGGGUAUACCGGAAGCGCCGUCACGGUAGUGAUGUUACACGCGACGGGACCAGAAGGUAGAUCGCUCC [theeternabot_exclusion_KL_FMN_B_33]", "recorded.value": "73.9 nM"}
{"residue.string": "AAUAAUCUAGGUGAUACCAGCUCAACAUGAGUGAUGUUCGUGAGCUAAUGUAGAGUUGAGAGCCCUUGGCAGCACCUAGAUAAUA [KL-SSTheoB7]", "recorded.value": "698 nM"}
{"residue.string": "CGCCGAAAGGCGAGCGCUCCCACUCCGGAAGGAGCGCCCGAAAGGGCAGGUAGGUCGCCGGAGUGAUGUUCCGGUGGAGGGCUCG [#2 Exclusion - Arginine A Attempt #30 (Inspired by Omei)]", "recorded.value": "177 nM"}
{"residue.string": "UUAUAUACGAGUGAUGUUCGUUAUUUAUCAGAGGAUAUGCUUAAAUGCAGAAGGCUGUUUUUCUAUUUGAUAUUAAAUUUUAUAA [JR_Nu3_ExcFMNA_Sub027]", "recorded.value": "81.6 nM"}

// lookup apparent KD of K4 kissing-loop reporter for AGCGACUCGAAAGGGUCGCGGCUAAGGGAUACCAGUGAUGUUGGUCACCCUUGGCAGCCCAGAAGCCAAGCCACCAAAGGUGGCA [Omei KL Theo A Exc A v10]
124 nM

Input AGUACGGACACGGCCGCCACUCAGAAGAAGACAGUAGUGAUGUUACUGAUGGUGAGAAUAAUAAAGAGGACCGGGUGUCGUGCAA [#05 K4 Tryptophan B Same State]
270 nM

Input GGGAUGUAGUGAUGUUAUAUUAGAUGUAGACGAGGACCGGUACGGCCGCCACUCGUGAUGGCUGCUAGCACGUUUCGAUGUUUGC [ExTryptoA.Cr]
399 nM

Input UGACUGGAUGGAAGGAGCGCUAAACUCCUAGUGAUGUUAGGGAAACGAGACAAAGUCUCGAGGCAGGUAGGUCGCCAUCUAGUCU [FiskerMod 15 - Jieux - Same State - Arginine B]
183 nM

Input GGACAACUAUGUCCCAUACAAACAAGAGAUACCAGCCAUCAUAGAGGCCCUUGGCAGCUCAUAUAAUCCAGUGAUGUUGGAUUUC [Atgebeus]
165 nM

Input AUGCGACGUGCGGCCGCCACUCGGAUGCGAGUGAUGUUCGCGGGCCGGCCGCAAGGCCGGCAUUCGAGGACCGGGCAUCGGUGUA [#2 Same State - Tryptophan B Attempt #1 (HarryS)]
420 nM

###

Tested on: K4 kissing-loop RNA reporter;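 further: bound reporter read as fluorescence of individual clusters on recovered sequencing chips by microscopy, with normalized cluster intensities fitted with a binding model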
test.summary: apparent KD of K4 kissing-loop reporter; higher = weaker reporter binding
test.context: Eterna round: R107; input ligand: none
Measured apparent KD of K4 kissing-loop reporter values are reported for all entries that follow.
Only the number, expressed in µM, is required.

// lookup apparent KD of K4 kissing-loop reporter for GGCACGGUGGCGCGACUGCCGUGCGCUUGGGAGGAUAUGUUUCGUGACAGAAGGCCCAGUGAUGUUGGGUCUGUUCAAAAGGACU [Gegearer]
0.127

Input GGGCGUGGCGCGGCCGCCACUGGGCCUGGGUGCUCGCUGAGUGAUGUUCGUCGGCGGUUGGGUCGUAGGACCGGGUGCUGGUUGG [BDazzled - #9 SS Tryptophan B]
0.607
